The reported numbers originate from ChEMBL document CHEMBL4765381.

subjectOfTest: Neuropeptide FF receptor 1 (Homo sapiens, UniProt Q9GZQ6)
Sequence (Q9GZQ6 whole entry): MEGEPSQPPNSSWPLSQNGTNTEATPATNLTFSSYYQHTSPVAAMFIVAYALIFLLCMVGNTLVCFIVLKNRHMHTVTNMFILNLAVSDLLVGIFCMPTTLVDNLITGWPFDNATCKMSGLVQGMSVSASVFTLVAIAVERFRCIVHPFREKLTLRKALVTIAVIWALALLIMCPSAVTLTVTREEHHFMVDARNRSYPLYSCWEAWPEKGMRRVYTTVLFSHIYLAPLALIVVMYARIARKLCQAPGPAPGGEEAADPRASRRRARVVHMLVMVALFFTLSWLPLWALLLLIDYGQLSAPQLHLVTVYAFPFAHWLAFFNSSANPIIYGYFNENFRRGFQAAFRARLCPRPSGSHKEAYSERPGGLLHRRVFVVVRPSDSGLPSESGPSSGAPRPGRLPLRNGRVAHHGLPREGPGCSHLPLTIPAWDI
protocolNotes: Binding affinity to human NPFFR1 by radioligand binding assay
observedProperty: pKi
pKi field: float, defined as -log10 of concentration (mol/L).

QUERY: Record request: pKi value, item "Cc1cc(NC(=N)N)nc2ccccc12"
RESULT: 7.89

* * *

subjectOfTest: Neuropeptide FF receptor 2 (Homo sapiens, UniProt Q9Y5X5)
Sequence (Q9Y5X5 whole entry): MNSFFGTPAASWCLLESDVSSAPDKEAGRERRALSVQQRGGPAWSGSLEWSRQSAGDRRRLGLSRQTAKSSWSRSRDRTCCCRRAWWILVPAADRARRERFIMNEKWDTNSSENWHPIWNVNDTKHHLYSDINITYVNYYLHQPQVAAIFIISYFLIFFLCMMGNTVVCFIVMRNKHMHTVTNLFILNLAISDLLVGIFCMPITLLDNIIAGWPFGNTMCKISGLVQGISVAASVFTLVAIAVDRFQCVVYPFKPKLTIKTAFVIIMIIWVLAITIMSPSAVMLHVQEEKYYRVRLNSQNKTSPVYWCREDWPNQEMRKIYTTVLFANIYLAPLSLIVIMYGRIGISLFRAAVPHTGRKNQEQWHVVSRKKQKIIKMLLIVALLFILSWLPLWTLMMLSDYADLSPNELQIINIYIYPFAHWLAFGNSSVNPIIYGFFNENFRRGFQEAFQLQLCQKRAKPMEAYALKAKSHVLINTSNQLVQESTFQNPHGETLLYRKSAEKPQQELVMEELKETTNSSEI
protocolNotes: Displacement of [3H]-FFRF-NH2 from human NPFFR2 expressed in CHO cell membrane by Topcount scintillation counting method
Format: cell membranes
observedProperty: Ki (nM)
Kindly provide the numeric value in nM only, without the unit symbol.

QUERY: Record request: Ki value, item "NC1=NC=C(c2ccc(Cl)c(Cl)c2)CN1"
RESULT: 37

* * *

subjectOfTest: Neuropeptide FF receptor 1 (Rattus norvegicus, UniProt Q9EP86)
Sequence (Q9EP86 whole entry): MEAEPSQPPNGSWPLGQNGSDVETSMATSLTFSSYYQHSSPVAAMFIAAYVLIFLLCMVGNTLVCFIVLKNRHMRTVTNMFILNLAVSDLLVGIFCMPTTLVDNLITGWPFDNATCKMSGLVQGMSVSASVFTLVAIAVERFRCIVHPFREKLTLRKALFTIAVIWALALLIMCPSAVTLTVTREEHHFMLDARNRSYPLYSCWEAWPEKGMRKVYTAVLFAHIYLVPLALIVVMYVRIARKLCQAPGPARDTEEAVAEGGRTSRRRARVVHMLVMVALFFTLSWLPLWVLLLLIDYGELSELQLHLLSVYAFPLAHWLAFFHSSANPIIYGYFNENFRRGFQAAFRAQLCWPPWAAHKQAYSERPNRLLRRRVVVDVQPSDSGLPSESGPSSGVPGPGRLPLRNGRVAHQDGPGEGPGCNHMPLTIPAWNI
protocolNotes: Binding affinity to rat NPFFR1 by radioligand binding assay
observedProperty: Ki
Enter the number, and then the unit.

QUERY: Checklist item: Ki tested on Neuropeptide FF receptor 1 (Rattus norvegicus, UniProt Q9EP86), entry "Cc1cc(NC(=N)N)nc2ccccc12" , value?
RESULT: 7 nM

* * *

subjectOfTest: Neuropeptide FF receptor 2 (Homo sapiens)
protocolNotes: Displacement of 125I-NPFF from human NPFFR2 incubated for 2 hrs by TopCount scintillation counting method
observedProperty: pKi
pKi field: float, defined as -log10 of concentration (mol/L).

QUERY: Record request: pKi value, item "N=C(N)N/N=C/c1ccc(Br)c(Br)c1"
RESULT: 6.90

* * *

subjectOfTest: UniProt Q9GZQ6
protocolNotes: Displacement of [125I]NPFF from human NPFFR1 expressed in CHO cell membranes incubated for 120 mins by scintillation/luminescence counting method
Parameters: species or system Membrane
observedProperty: pKi
pKi field: float, defined as -log10 of concentration (mol/L).

CCCCCOC(=O)[C@@H]1C[C@H](NCc2ccc(OC)cc2)CN1Cc1ccccc1Cl
6.05

QUERY: Record request: pKi value, item "COc1ccc(CN[C@H]2C[C@@H](C(=O)OCCc3ccc([N+](=O)[O-])cc3)N(Cc3ccccc3Cl)C2)cc1"
RESULT: 6.21

* * *

// reported pEC50 for each item listed
subjectOfTest: Neuropeptide FF receptor 1 (Homo sapiens)
protocolNotes: Agonist activity at NPFFR1 (unknown origin) expressed in mouse NIH3T3 cells by receptor selection and amplification technology assay
Format: cell-based
pEC50 field: float, defined as -log10 of concentration (mol/L).

N=C(N)N/N=C/c1ccc(Cl)c(C(F)(F)F)c1
5.50

Below: the item to evaluate.
QUERY: Checklist item: pEC50 tested on Neuropeptide FF receptor 1 (Homo sapiens), entry "N=C(N)N/N=C/c1ccc(-c2ccccc2C(F)(F)F)o1" , value?
RESULT: 6.60

* * *

subjectOfTest: Neuropeptide FF receptor 2 (Homo sapiens)
protocolNotes: Displacement of [3H]-FFRF-NH2 from human FLAG-tagged NPFFR2 expressed in CHO cell membrane incubated for 30 mins by Topcount scintillation counting method
observedProperty: Ki (nM)
Kindly provide the numeric value in nM only, without the unit symbol.

QUERY: Record request: Ki value, item "O=C(N[C@@H](CCCN1CCCCC1)C(=O)NCCc1ccccc1)c1ccccc1-c1ccccc1"
RESULT: 560

* * *

// reported pKi for each item listed
subjectOfTest: Neuropeptide FF receptor 2 (Homo sapiens, UniProt Q9Y5X5)
protocolNotes: Displacement of [125I]NPFF from human NPFFR2 expressed in CHO cell membranes incubated for 120 mins by scintillation/luminescence counting method
Set-up: species or system Membrane
pKi field: float, defined as -log10 of concentration (mol/L).

CCCCCOC(=O)[C@@H]1C[C@H](NCc2ccc(OC)cc2)CN1Cc1ccccc1Cl
5.84

Below: the item to evaluate.
QUERY: Checklist item: pKi tested on Neuropeptide FF receptor 2 (Homo sapiens, UniProt Q9Y5X5), entry "COc1ccc(CN[C@H]2C[C@@H](C(=O)OCCc3ccc([N+](=O)[O-])cc3)N(Cc3ccccc3Cl)C2)cc1" , value?
RESULT: 5.78
